tested on: Escherichia coli TOP10; test: shrunken log2 fold change of peptide-encoding DNA abundance (4.5 h post-induction vs induction); higher = less antimicrobial activity (less host growth inhibition); settings: time post-induction: 4.5 h; library: site-saturation at positions 5, 18, 19, 20;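 note: peptides expressed intracellularly from a pBAD plasmid library in pooled LB shake-flask culture, induced with 0.3% L-arabinose, DNA abundance read by NGS, three biological replicates, DESeq2 with apeglm shrinkage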
METRIC NAME: shrunken log2 fold change
Answer field: number only, no words.

Query block: Query: shrunken log2 fold change; subject: `RRIRNRPPRLPRPRPRPQEIPRP`
Result block: -0.00783

Query block: Query: shrunken log2 fold change; subject: `RRIRVRPPRLPRPRPRPSHRPRP`
Result block: -0.615

Query block: If you can, please state the reported shrunken log2 fold change value of `RRIRFRPPRLPRPRPRPTWIPRP` .
Result block: -0.222

Query block: Return reported shrunken log2 fold change; argument: `RRIRRRPPRLPRPRPRPHCDPRP`
Result block: -0.164

Query block: Given `RRIRFRPPRLPRPRPRPHYMPRP` , state its recorded shrunken log2 fold change.
Result block: -0.737

Query block: Query: shrunken log2 fold change; subject: `RRIRERPPRLPRPRPRPVTFPRP`
Result block: -0.019

Query block: shrunken log2 fold change lookup needed for `RRIRNRPPRLPRPRPRPKNWPRP` , thanks.
Result block: 0.168

Query block: Looking for the measured shrunken log2 fold change of `RRIRMRPPRLPRPRPRPNSVPRP` , can you help?
Result block: -0.0202
